The reported numbers originate from PubChem BioAssay (NCI).

assay: NCI Yeast Anticancer Drug Screen. Data for the rad50 strain (AID 155);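 further: 0% = growth of vehicle-only cultures of the same strain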; conditions: S. cerevisiae rad50 strain growth inhibition, hits give high values; at 50.0 µM unless noted
This is part of a sample that, as a whole, favours compounds with a hit. Of some 79,000 tested, about 15% had one in any assay. Where a SMILES comes first, the peptide text is derived from it. [ ]: non-standard residue; d: D form. The star is where a group is joined. ξ: configuration not given here. ξF = NC(Cc1ccccc1)C(=O)O; Cbz = O=C(OCc1ccccc1)*; Aib = CC(C)(N)C(=O)O

compound	unitAnnotation	growth inhibition
Cc1ccc(Cl)c(NC(=O)Nc2ccccc2Cl)c1	%	-3.7
CN(C)C(n1cc2c(c1)-c1ccc(Cl)cc1C(c1ccccc1F)=NC2)n1cc2c(c1)-c1ccc(Cl)cc1C(c1ccccc1F)=NC2	%	11.8
COC(=O)C(C)(C)NC(=O)C(Cc1ccccc1)NC(=O)C(C)(C)NC(=O)OCc1ccccc1 (stereo not given) (Cbz-[Aib]-[ξF]-[Aib]-OMe)	%	18.9
CC(C)N1C(=O)NC2C1NC(=O)N2C(C)C (stereo not given) (tested in a mixture with another compound)	%	-14.8
N#CC(C(=O)NN)C1CCCCC1 (stereo not given)	%	-0.85
COc1ccc2nc(C(=O)c3ccccc3)c(C)cc2c1	%	8.4
C[N+]1(CCN[N+]2(C)CCCCC2)CCc2ccccc2C1 (stereo not given)	%	-5.55
O=C(CCl)Oc1ccc(C(=O)O)cc1	%	-1.1
CCCCNC(=S)Nn1c(-c2ccccc2)nc2ccccc2c1=O	%	18.6
Cc1nn(C(=O)Cc2ccccc2)c2c1C(c1ccc(Cl)cc1)SC(N)=N2 (stereo not given)	%	-30.1
